The reported numbers originate from the supplement of paper PMC3334620.

assay.system: Ecm22 (UniProt Q05958)
Sequence: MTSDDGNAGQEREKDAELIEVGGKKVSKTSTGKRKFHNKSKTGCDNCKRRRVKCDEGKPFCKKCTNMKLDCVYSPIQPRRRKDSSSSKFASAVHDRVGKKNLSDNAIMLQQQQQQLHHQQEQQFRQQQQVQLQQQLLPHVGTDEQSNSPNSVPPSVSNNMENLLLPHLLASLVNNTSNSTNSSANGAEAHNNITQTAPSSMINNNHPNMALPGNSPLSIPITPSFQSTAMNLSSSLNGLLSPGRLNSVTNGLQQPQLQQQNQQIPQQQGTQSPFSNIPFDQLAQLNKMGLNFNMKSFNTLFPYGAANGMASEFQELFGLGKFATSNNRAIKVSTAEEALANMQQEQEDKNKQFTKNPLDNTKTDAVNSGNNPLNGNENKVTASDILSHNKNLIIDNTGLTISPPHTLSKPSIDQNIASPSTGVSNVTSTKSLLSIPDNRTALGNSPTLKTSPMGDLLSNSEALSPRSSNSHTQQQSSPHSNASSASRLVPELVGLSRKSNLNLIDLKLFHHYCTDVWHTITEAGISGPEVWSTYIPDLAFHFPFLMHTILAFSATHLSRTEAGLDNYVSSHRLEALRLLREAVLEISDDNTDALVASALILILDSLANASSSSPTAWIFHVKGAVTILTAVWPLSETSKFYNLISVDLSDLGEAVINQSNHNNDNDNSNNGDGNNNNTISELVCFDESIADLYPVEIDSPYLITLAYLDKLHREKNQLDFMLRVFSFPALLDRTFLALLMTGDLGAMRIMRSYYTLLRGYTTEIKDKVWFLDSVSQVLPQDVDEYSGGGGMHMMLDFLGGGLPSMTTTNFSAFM
assay.remarks: PBM E-score (8-mer binding enrichment) (E-score (-0.5 to 0.5)); higher = stronger / more preferred TF binding
details: protein concentration: 200 nM; construct: GST-full length
The full ranking holds about 33,000 sequences; the median of “E-score (-0.5 to 0.5)” is about -0.041, and the highest 2% start at about 0.37. Only a selection was taken, and the highest values are over-represented in it overall.
The threshold is inclusive: PBM E-score of exactly 0.2 counts as met; values below receive not met.

Examples with answers:
   sequence_data  discrete_label
0       CATAAACC         not met
1       AGGTATTA         not met
2       ACGCATCA         not met
3       AGTATAAG         not met
4       ACGAGTCT             met

// query Hi, just wondering whether CGATCTAG shows PBM E-score of 0.2 or higher.
// result not met

// query Hi, just wondering whether ACCGTCGT shows PBM E-score of 0.2 or higher.
// result met

----------
assay.system: Ecm22 (UniProt Q05958)
Sequence: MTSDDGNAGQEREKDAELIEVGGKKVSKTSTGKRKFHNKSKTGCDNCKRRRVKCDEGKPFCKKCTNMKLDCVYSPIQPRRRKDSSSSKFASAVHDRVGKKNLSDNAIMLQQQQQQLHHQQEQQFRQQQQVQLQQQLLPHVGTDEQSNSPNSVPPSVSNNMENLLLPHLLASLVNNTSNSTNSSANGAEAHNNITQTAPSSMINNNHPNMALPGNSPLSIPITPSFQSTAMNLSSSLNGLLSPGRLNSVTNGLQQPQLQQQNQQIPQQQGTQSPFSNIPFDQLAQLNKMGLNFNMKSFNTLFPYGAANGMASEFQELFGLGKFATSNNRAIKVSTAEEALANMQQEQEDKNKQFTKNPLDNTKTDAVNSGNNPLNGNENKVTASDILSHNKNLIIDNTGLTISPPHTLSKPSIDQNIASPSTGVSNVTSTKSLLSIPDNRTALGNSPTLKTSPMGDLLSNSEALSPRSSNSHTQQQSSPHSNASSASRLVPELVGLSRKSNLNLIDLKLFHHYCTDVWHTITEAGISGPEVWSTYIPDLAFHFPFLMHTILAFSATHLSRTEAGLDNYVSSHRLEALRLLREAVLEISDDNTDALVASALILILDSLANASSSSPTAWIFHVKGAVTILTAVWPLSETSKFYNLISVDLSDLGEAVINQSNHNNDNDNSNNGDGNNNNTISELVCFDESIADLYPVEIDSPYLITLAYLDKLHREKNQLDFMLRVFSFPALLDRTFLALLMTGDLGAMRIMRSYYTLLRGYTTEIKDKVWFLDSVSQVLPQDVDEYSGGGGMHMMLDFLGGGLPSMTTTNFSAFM
assay.remarks: PBM E-score (8-mer binding enrichment) (E-score (-0.5 to 0.5)); higher = stronger / more preferred TF binding
details: protein concentration: 200 nM; construct: GST-full length
In all, about 33,000 sequences were measured (“E-score (-0.5 to 0.5)”: median about -0.041, highest 2% from about 0.37 on). Only a selection was taken, and the highest values are over-represented in it overall.
readout.name: PBM E-score
Give a plain numeric answer without units written out.

// query Which PBM E-score reading was recorded for the sequence AACGTATT ?
// result 0.229

// query Which PBM E-score reading was recorded for the sequence CCTCGCAG ?
// result 0.0132

// query Which PBM E-score reading was recorded for the sequence CTACGGTA ?
// result 0.0823

// query Which PBM E-score reading was recorded for the sequence AACCCTTG ?
// result -0.0616

----------
assay.system: Ecm22 (UniProt Q05958)
Sequence: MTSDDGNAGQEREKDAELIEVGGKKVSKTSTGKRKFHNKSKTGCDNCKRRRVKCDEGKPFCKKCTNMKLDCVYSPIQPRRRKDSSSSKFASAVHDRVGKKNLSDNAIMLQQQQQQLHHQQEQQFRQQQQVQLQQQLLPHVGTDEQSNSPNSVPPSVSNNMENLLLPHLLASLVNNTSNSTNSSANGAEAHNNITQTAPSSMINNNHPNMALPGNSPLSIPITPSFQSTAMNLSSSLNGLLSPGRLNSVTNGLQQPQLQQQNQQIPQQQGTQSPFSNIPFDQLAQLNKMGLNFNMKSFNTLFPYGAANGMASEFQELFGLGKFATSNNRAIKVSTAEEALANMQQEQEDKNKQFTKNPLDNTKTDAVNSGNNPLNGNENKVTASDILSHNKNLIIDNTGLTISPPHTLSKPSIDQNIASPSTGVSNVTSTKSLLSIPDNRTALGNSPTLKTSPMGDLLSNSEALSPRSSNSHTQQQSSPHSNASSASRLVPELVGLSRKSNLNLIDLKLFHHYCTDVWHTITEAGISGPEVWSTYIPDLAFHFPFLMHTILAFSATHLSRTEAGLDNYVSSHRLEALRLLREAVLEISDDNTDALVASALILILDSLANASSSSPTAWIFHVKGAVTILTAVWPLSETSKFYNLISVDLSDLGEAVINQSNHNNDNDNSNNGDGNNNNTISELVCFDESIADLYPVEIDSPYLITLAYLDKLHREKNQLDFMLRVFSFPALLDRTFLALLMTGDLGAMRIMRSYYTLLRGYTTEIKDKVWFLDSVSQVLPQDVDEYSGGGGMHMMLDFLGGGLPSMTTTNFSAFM
assay.remarks: PBM E-score (8-mer binding enrichment) (E-score (-0.5 to 0.5)); higher = stronger / more preferred TF binding
details: protein concentration: 200 nM; construct: GST-full length
The full ranking holds about 33,000 sequences; the median of “E-score (-0.5 to 0.5)” is about -0.041, and the highest 2% start at about 0.37. The list comes from a sample in which the highest values are over-represented; it also holds close analogues and randomly drawn sequences.
readout.name: PBM E-score
Give a plain numeric answer without units written out.

Examples from the recorded data:
   sequence_data            assay_system       val
0       ATTGCAGG  Ecm22 (UniProt Q05958)  -0.00797
1       AAACGACT  Ecm22 (UniProt Q05958)     0.437
2       ACGTATAG  Ecm22 (UniProt Q05958)     0.403
3       CGTTCGTA  Ecm22 (UniProt Q05958)     0.461
4       CTACTGCA  Ecm22 (UniProt Q05958)    -0.158

// query Which PBM E-score reading was recorded for the sequence AGTCCCAG ?
// result -0.0584

// query Which PBM E-score reading was recorded for the sequence GAACGACC ?
// result 0.451

// query Which PBM E-score reading was recorded for the sequence CGACGACG ?
// result 0.127

----------
assay.system: Ecm22 (UniProt Q05958)
Sequence: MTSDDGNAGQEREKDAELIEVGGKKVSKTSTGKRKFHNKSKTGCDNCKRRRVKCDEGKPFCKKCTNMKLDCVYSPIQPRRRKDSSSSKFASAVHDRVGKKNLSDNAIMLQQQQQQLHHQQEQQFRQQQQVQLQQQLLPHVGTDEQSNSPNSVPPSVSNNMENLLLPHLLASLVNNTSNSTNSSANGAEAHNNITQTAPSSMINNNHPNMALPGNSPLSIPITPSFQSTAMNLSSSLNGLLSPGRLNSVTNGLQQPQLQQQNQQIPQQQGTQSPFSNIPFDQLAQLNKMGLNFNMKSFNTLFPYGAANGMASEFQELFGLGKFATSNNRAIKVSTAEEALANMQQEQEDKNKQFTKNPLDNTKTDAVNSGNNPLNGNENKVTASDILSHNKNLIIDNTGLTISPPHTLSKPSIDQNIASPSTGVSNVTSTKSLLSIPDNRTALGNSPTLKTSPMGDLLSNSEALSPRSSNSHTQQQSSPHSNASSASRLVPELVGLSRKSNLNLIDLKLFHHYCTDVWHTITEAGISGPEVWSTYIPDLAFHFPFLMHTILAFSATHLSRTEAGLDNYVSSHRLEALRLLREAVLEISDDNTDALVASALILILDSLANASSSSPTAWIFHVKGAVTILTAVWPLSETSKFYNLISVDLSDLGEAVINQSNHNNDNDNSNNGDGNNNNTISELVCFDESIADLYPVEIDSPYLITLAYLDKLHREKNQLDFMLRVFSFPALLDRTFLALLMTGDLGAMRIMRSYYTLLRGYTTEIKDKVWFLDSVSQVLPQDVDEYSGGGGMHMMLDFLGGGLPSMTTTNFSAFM
assay.remarks: PBM E-score (8-mer binding enrichment) (E-score (-0.5 to 0.5)); higher = stronger / more preferred TF binding
details: protein concentration: 200 nM; construct: GST-full length
In all, about 33,000 sequences were measured (“E-score (-0.5 to 0.5)”: median about -0.041, highest 2% from about 0.37 on). The entries come from a sample that favours the highest values as a whole.
Below: a set of entries, each annotated with reported PBM E-score.
Give a plain numeric answer without units written out.

   sequence_data  readout_name     val
0       GGGAACCC   PBM E-score  0.0178

// query Which PBM E-score reading was recorded for the sequence CGAGTACC ?
// result 0.21

// query Which PBM E-score reading was recorded for the sequence AGGGTACA ?
// result -0.0565

// query Which PBM E-score reading was recorded for the sequence CAGCCTCA ?
// result -0.00094

// query Which PBM E-score reading was recorded for the sequence CGGGTACG ?
// result 0.452

// query Which PBM E-score reading was recorded for the sequence ACGAAAGG ?
// result 0.33

// query Which PBM E-score reading was recorded for the sequence ACGCGGGA ?
// result 0.062

// query Which PBM E-score reading was recorded for the sequence ACGTAGTC ?
// result -0.158

// query Which PBM E-score reading was recorded for the sequence TAATCATA ?
// result -0.0103

// query Which PBM E-score reading was recorded for the sequence AGGGTACG ?
// result 0.411

// query Which PBM E-score reading was recorded for the sequence GGATCCCC ?
// result -0.0315

// query Which PBM E-score reading was recorded for the sequence AGAGTACG ?
// result 0.257

// query Which PBM E-score reading was recorded for the sequence CGGGTACC ?
// result -0.134

// query Which PBM E-score reading was recorded for the sequence CCGAAACG ?
// result 0.288

// query Which PBM E-score reading was recorded for the sequence CCGCAACG ?
// result 0.377

// query Which PBM E-score reading was recorded for the sequence ACATGGGC ?
// result -0.263

// query Which PBM E-score reading was recorded for the sequence ATCCTACC ?
// result -0.186

// query Which PBM E-score reading was recorded for the sequence GCGAAATA ?
// result 0.0791
